- Test system: Heat shock protein HSP90 (Homo sapiens, UniProt P07900+P08238)
- Assay comment: Inhibition of Hsp90 in human SKBR3 cells assessed as interaction with Cy3b-conjugated geldanamycin by FP assay
- Assay type: cell-based
- Condition label: sk-br-3
Metric: IC50 (µM)

[a] N#Cc1cc(S(=O)(=O)Nc2ccc(F)c(-c3c(O)ccc4c3OCO4)c2)ccc1F
[b] COc1ccc(S(=O)(=O)Nc2ccc(O)c(-c3c(O)ccc4ccccc34)c2)c(OC)c1
[c] Nc1ccc(NS(=O)(=O)c2cc(Cl)ccc2Cl)cc1-c1c(O)ccc2ccccc12
Order these compounds (above) by their IC50, from the smallest value upward. Record the ranking as a list of labels in the requested order.
b, c, a
